- TARGET OR TEST SYSTEM: PDE4B (Homo sapiens, UniProt Q07343)
- Sequence (Q07343 whole entry): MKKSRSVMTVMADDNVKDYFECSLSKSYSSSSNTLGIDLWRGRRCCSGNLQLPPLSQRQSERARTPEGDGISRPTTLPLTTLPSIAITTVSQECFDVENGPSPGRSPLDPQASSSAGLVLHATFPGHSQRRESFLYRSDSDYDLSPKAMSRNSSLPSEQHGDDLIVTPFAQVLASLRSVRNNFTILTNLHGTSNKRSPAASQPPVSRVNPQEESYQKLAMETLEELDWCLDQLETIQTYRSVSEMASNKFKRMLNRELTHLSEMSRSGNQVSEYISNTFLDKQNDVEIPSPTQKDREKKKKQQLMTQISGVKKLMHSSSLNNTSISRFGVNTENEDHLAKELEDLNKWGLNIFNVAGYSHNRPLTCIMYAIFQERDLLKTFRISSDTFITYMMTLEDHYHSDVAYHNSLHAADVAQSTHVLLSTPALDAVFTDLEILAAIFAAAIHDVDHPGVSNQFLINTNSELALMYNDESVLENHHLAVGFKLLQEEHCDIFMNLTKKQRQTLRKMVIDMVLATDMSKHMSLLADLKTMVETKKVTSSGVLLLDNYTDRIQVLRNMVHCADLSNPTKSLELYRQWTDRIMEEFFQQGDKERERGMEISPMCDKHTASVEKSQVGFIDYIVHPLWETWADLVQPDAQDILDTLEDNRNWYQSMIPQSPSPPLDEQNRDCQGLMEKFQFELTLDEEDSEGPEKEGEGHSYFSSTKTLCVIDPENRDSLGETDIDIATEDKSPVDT
- PROTOCOL SUMMARY: In-vitro assay for PDE4 enzymes, real-time enzyme-coupled spectrophotometric assay, PDE4B Activity (Table 10)
- Format: biochemical
- CONDITIONS: human PDE4B (hPDE4B), enzyme-coupled spectrophotometric assay; read-out: PDE4B Activity, hPDE4B
Structures can show the parent of a compound that is named as a salt.
Catalogue of compounds with associated IC50
MEASUREMENT NAME: IC50

COMPOUND | MEASUREMENT NAME | RESULT
COc1ccc(Cc2ccc(NC(=O)CN(C)C)cc2)c(F)c1-c1cccc([N+](=O)[O-])c1 | IC50 | < 5 µM
COc1ccc(Cc2ccc(CNC(N)=O)c(O)c2)c(F)c1-c1cccc(Cl)c1 | IC50 | < 5 µM
COc1ccc(Cc2nnc(N)s2)c(F)c1-c1cccc(Cl)c1 | IC50 | < 5 µM
COc1ccc(CN2CCNC2=O)cc1-c1cccc([N+](=O)[O-])c1 | IC50 | < 5 µM
COc1ccc(COc2ccccn2)cc1-c1cccc([N+](=O)[O-])c1 | IC50 | 5 to 20 µM
COc1ccc(COc2ccc(N)cc2)c(F)c1-c1cccc(Br)c1 | IC50 | < 5 µM
COc1ccc(Cc2cnc(N)nc2)c(F)c1-c1cccc(C#N)c1 | IC50 | < 5 µM
COc1ccc(Cc2ccc(NC(=O)CN(C)C)cc2)cc1-c1cccc([N+](=O)[O-])c1 | IC50 | < 5 µM
Oc1ccc(Cc2ccc(F)cc2)c(F)c1-c1cccc(Br)c1 | IC50 | < 5 µM
COc1ccc(Cc2ccc(OCCN3CCOCC3)cc2)cc1-c1cccc([N+](=O)[O-])c1 | IC50 | < 5 µM
COc1ccc(Cc2cccc(NC(C)=O)c2)c(F)c1-c1cccc(Cl)c1 | IC50 | < 5 µM
COc1ccc(Cn2cncc2CO)cc1-c1cccc([N+](=O)[O-])c1 | IC50 | 5 to 20 µM
COc1ccc(Cc2cnc(N)nc2)c(F)c1-c1cccc(C(C)=O)c1 [P-281, hydrochloride] | IC50 | < 5 µM
COc1ccc(Cc2ccc3nc(N)oc3c2)c(F)c1-c1cccc(Cl)c1 | IC50 | 5 to 20 µM
COc1ccc(Cc2cc(N)cc(O)c2)c(F)c1-c1cccc(Cl)c1 | IC50 | 21 to 40 µM
O=[N+]([O-])c1cccc(-c2c(O)ccc(Cc3ccc(F)cc3)c2F)c1 | IC50 | < 5 µM
COc1ccc(Cc2ccc(O)cc2)c(F)c1-c1cccc(Cl)c1 | IC50 | < 5 µM
COc1ccc(CN2C[C@@H](OC(N)=O)CC2=O)cc1-c1cccc([N+](=O)[O-])c1 | IC50 | 21 to 40 µM
COc1ccc(Cc2ccc(NS(C)(=O)=O)cc2)c(F)c1-c1cccc(Br)c1 | IC50 | < 5 µM
